# Experimental Protocol: Selectivity index, ratio of CC50 for African green monkey Vero cells to MIC for Mycobacterium tuberculosis 19
# Format: toxicity
hey, just use YES if measured selectivity ratio is less than 10, otherwise NO

[in] I'd appreciate it if you could check whether `O=C(NN1C(=O)CCC1=O)c1cc2c([nH]c3ccccc32)c(-c2ccc(F)cc2)n1` has selectivity ratio smaller than 10.
[out] YES

[in] I'd appreciate it if you could check whether `O=C(NN1C(=O)c2ccccc2C1=O)c1cc2c([nH]c3ccccc32)c(-c2cccc([N+](=O)[O-])c2)n1` has selectivity ratio smaller than 10.
[out] YES

[in] I'd appreciate it if you could check whether `O=C(NN1C(=O)c2ccccc2C1=O)c1cc2c([nH]c3ccccc32)c(-c2ccc(F)cc2)n1` has selectivity ratio smaller than 10.
[out] NO

[in] I'd appreciate it if you could check whether `O=C(NN1C(=O)c2ccccc2C1=O)c1cc2c([nH]c3ccccc32)c(-c2ccccc2)n1` has selectivity ratio smaller than 10.
[out] NO

[in] I'd appreciate it if you could check whether `COC(=O)c1cc2c([nH]c3ccccc32)c(-c2ccc(N(C)C)cc2)n1` has selectivity ratio smaller than 10.
[out] NO

Sourced from ChEMBL document CHEMBL4602632
